# Aminopeptidase activity per entry
# Test system: Campylobacter sputorum
# Type: biochemical
Peptide text beside a SMILES is read from it.
QUANTITY_MEASURED: Aminopeptidase activity

| COMPOUND | QUANTITY_MEASURED | ASSAY_VALUE |
| --- | --- | --- |
| NCCCC[C@H](N)C(=O)N1CCC[C@H]1C(=O)O [Lys-Pro, Lysyl-proline] (H-Lys-Pro-OH) | Aminopeptidase activity | 3 |
| C[C@H](NC(=O)[C@@H](N)CCCCN)C(=O)O [Lys-Ala, Lysyl-alanine] (H-Lys-Ala-OH) | Aminopeptidase activity | 0 |
| N=C(N)NCCC[C@H](NC(=O)[C@@H](N)CCCNC(=N)N)C(=O)O [Arg-Arg, Arginyl-arginine] (H-Arg-Arg-OH) | Aminopeptidase activity | 1 |
| NCC(=O)N1CCC[C@H]1C(=O)O [Gly-Pro, Glycyl-proline] (H-Gly-Pro-OH) | Aminopeptidase activity | 1 |
| N=C(N)NCCC[C@H](NC(=O)CN)C(=O)O [Gly-Arg, Glycyl-arginine] (H-Gly-Arg-OH) | Aminopeptidase activity | 0 |

###

# System: F. periodonticum
# PROCEDURE_DETAILS: Aminopeptidase activity on β-naphthylamide substrates
# Type: biochemical
# CONDITION_SET: strain EK1-15; β-naphthylamine liberated after 60 minutes, 37° C.
Peptide text beside a SMILES is read from it. * marks the point of attachment. βNA = c1ccc2cc(N*)ccc2c1

| MOLECULE | Aminopeptidase activity, nmol |
| --- | --- |
| CC(C)C[C@H](NC(=O)[C@@H]1CCCN1C(=O)CN)C(=O)Nc1ccc2ccccc2c1 [Gly-Pro-Leu] (H-Gly-Pro-Leu-βNA) | 1 |
| Cl.N=C(N)NCCC[C@H](NC(=O)CNC(=O)CNC(=O)OCc1ccccc1)C(=O)Nc1ccc2ccccc2c1 [N-CBz-Gly-Gly-Arg] | 0 |
| NC(=O)[C@@H](N)CCC(=O)O [α-Glu, α -glutamine] | 0 |
| N=C(N)NCCC[C@H](NC(=O)[C@@H](N)CCCNC(=N)N)C(=O)O [Arg-Arg, Arginyl-arginine] (H-Arg-Arg-OH) | 1 |
| N=C(N)NCCC[C@H](NC(=O)CN)C(=O)O [Gly-Arg, Glycyl-arginine] (H-Gly-Arg-OH) | 0 |
| CC(C)C[C@H](N)C(=O)NCC(=O)O [Leu-Gly, Leucyl-glycine] (H-Leu-Gly-OH) | 0 |
| CSCCC(N)C(=O)Nc1ccc2ccccc2c1 (racemic) | 0 |
| C[C@H](N)C(=O)N[C@@H](C)C(=O)N[C@@H](Cc1ccccc1)C(=O)Nc1ccc2ccccc2c1 [Ala-Ala-Phe] (H-Ala-Ala-Phe-βNA) | 1 |

###

# Tested on: Streptococcus mitis
# Assay type: biochemical
# CONDITION_SET: strain ATCC 15911; β-naphthylamine liberated after 60 minutes, 37° C.
Peptide text beside a SMILES is read from it. * marks the point of attachment. βNA = c1ccc2cc(N*)ccc2c1

| MOLECULE | MEASURED_TARGET | UNIT_NAME | Aminopeptidase activity |
| --- | --- | --- | --- |
| CC(C)C[C@H](N)C(=O)NCC(=O)O [Leu-Gly, Leucyl-glycine] (H-Leu-Gly-OH) | Streptococcus mitis | nmol | 124 |
| CSCCC(N)C(=O)Nc1ccc2ccccc2c1 (racemic) | Streptococcus mitis | nmol | 13 |
| C[C@H](N)C(=O)N[C@@H](C)C(=O)N[C@@H](Cc1ccccc1)C(=O)Nc1ccc2ccccc2c1 [Ala-Ala-Phe] (H-Ala-Ala-Phe-βNA) | Streptococcus mitis | nmol | 0 |
| NC(=O)[C@@H](N)CCC(=O)O [α-Glu, α -glutamine] | Streptococcus mitis | nmol | 0 |
